// data source = paper PMC10363979

- Assay comment: Pharmacokinetic interaction between BP and macitentan in rats (plasma macitentan and ACT-132577)
- Type: in vivo, Sprague-Dawley rats
- Cond: Sprague-Dawley, rat, plasma, po, 20 mg/kg, macitentan in plasma, macitentan 20 mg/kg oral, experimental group (BP 10 mg/kg daily 7 days)
Readout name: AUC(0-t) (ng·h/mL)

>>> numeric_readout("CCCNS(=O)(=O)Nc1ncnc(OCCOc2ncc(Br)cn2)c1-c1ccc(Br)cc1")
20300

* * *

- Test target: recombinant human CYP3A4 (rCYP3A4) (Homo sapiens)
- Sequence (P08684 whole entry): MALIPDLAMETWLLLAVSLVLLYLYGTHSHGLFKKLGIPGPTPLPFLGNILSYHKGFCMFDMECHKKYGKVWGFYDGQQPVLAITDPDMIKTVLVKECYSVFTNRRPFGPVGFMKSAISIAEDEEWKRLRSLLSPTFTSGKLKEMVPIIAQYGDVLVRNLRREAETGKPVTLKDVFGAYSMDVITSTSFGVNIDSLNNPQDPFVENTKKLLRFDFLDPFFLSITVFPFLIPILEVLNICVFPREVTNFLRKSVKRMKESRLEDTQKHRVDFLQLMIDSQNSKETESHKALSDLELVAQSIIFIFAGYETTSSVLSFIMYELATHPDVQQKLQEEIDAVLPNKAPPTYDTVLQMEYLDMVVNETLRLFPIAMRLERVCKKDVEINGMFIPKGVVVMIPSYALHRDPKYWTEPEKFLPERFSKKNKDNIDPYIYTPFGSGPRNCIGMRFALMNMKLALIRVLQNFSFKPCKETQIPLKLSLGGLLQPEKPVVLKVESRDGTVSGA
- Assay comment: Inhibition of macitentan metabolism (ACT-132577 formation) by bergapten and Michaelis-Menten kinetics in recombinant human CYP3A4
- Cond: rCYP3A4 0.13 mg/mL, 30 min, 37°C; read-out: IC50 of BP on macitentan metabolism
- Protocol: The concentrations of macitentan and ACT-132577 were determined by UPLC-MS/MS, which consisted of an Acquity I-class UPLC system (Waters Corp., Milford, MA, United States) and a Xevo TQD triple quadrupole mass spectrometer (Waters Corporation, Milford, MA, United States) equipped with an electrospray ionization source. Chromatographic separation was performed on an Acquity UPLC BEH C18 column (2.1 × 100 mm, 1.7 μm) at 40°C. […]
Readout name: IC50 (µM)

>>> numeric_readout("COc1c2ccoc2cc2oc(=O)ccc12")
12.8

* * *

- Assay comment: Pharmacokinetic interaction between BP and macitentan in rats (plasma macitentan and ACT-132577)
- Format: in vivo, Sprague-Dawley rats
- Cond: Sprague-Dawley, rat, plasma, po, 20 mg/kg, macitentan in plasma, macitentan 20 mg/kg oral, control group (0.5% CMC-Na 7 days)
Readout name: AUC(0-t) (ng·h/mL)

>>> numeric_readout("CCCNS(=O)(=O)Nc1ncnc(OCCOc2ncc(Br)cn2)c1-c1ccc(Br)cc1")
7870
